Target or system: Proteasome subunit beta type-6 (Homo sapiens)
Experiment summary: Inhibition of caspase-like activity of human proteasome beta-1c subunit using SUC-LLE-AMC as flurogenic substrate preincubated for 15 mins followed by substrate addition and measured after 1 hr by fluorescence assay
pIC50: −log10 of the molar value.
Hi there, I'd appreciate the recorded pIC50 for every entry that follows.

// pIC50 value for COc1ccc(C[C@H](NC(=O)[C@@H](C)NC(=O)N2CC[C@H](OC)C2)C(=O)N[C@@H](Cc2ccccc2)C(=O)[C@@]2(C)CO2)cc1 : < 5.00

// pIC50 value for COc1ccc(C[C@H](NC(=O)[C@@H](C)NC(=O)N2CCC[C@@H](OC)C2)C(=O)N[C@@H](Cc2ccccc2)C(=O)[C@@]2(C)CO2)cc1 : < 5.00

// pIC50 value for COc1ccc(C[C@H](NC(=O)[C@@H](C)NC(=O)N2CCC(OC)CC2)C(=O)N[C@@H](Cc2ccccc2)C(=O)[C@@]2(C)CO2)cc1 : < 5.00

// pIC50 value for C[C@H](NC(=O)N1CCC(NC(=O)c2nccs2)CC1)C(=O)N[C@@H](Cc1c[nH]c2ccccc12)C(=O)N[C@@H](Cc1ccccc1)C(=O)[C@@]1(C)CO1 : 5.36

Value source: BindingDB's records for doi:10.1016/j.ejmech.2021.113556
